Property: Ki; scope: individual compounds
- Assay System: MCH receptor (Homo sapiens)
- Construct: expressed in transfected cells; host or cells: CHO cells (membrane preparation)
- Sequence (Q99705 whole entry): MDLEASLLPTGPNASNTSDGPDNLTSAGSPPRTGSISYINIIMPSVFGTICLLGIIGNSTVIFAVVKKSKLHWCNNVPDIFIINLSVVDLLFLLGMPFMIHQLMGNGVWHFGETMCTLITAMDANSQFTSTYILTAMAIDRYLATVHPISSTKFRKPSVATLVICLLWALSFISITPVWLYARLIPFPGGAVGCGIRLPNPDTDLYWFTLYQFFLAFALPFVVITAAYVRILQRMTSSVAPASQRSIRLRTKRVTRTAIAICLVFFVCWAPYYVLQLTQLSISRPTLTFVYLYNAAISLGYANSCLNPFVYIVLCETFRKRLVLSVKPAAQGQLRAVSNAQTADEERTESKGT
- Measurement Notes: MCH receptor binding assay ([125I]-MCH, SPA)
- Stated Conditions: membranes from CHO cells expressing the MCH receptor, read-out: Class (Ki)

Sample answers from the record:
Compound	Ki
CN(C)Cc1ncc(C2=CCC(N(CCN3CCCC3)C(=O)Nc3ccc(F)c(C(F)(F)F)c3)CC2)s1 (centres unmarked)	> 100 nM
CN(C)Cc1ccc(C2=CCC(N(CCN3CCCC3)C(=O)Nc3ccc(F)c(Cl)c3)CC2)s1 (centres unmarked)	> 100 nM
C[C@@H]1CN(CCCN(C(=O)Nc2ccc(F)c(C(F)(F)F)c2)[C@@H]2CC[C@]3(c4cnc(CN)s4)CC23)[C@@H](C)CN1 (some centres unmarked)	< 30 nM
NCc1ncc([C@]23CC[C@@H](N(CCCN4CC[C@@H](O)C4)C(=O)Nc4ccc(F)c(C(F)(F)F)c4)[C@H]2C3)s1	< 30 nM
NCc1ncc(C2=CCC(N(CCN3CCCC3)C(=O)Nc3ccc(F)c(C(F)(F)F)c3)CC2)s1 (centres unmarked)	< 30 nM

Prompt: Which Ki reading was recorded for the compound `NCc1ncc([C@@]23C[C@H](N(CCCN4CC[C@H](O)C4)C(=O)Nc4ccc(F)c(C(F)(F)F)c4)C[C@@H]2C3)s1` ?
Completion: > 100 nM

Prompt: // same read-out, input: O=C(Nc1ccc(F)c(Cl)c1)N(CCN1CCCC1)C1CC=C(c2ccc(CN3CC[C@H](O)C3)s2)CC1 (some centres unmarked)
Completion: 30 to 100 nM

Prompt: // same read-out, input: O=C(Nc1ccc(F)c(Cl)c1)N(CCN1CCCC1)C1CC=C(c2ccc(CN3CCCC3)s2)CC1 (centres unmarked)
Completion: > 100 nM

Prompt: // same read-out, input: `NCc1ncc([C@@]23CC[C@H](N(CCCN4CC[C@@H](O)C4)C(=O)Nc4ccc(F)c(C(F)(F)F)c4)[C@@H]2C3)s1`
Completion: > 100 nM

Hey, just so you know, these numbers are from patent US7361769B2.
